Answer each item with its documented chemical recovery by SPE of plasma.
- assay protocol: chemical recovery by SPE of plasma after PDMS sampling; higher = better extraction
- condition details: pooled human plasma; extraction method: HLB SPE of plasma after PES; equilibration time (d): 6
Answers are plain numbers, in %.

Example entries begin here.
| compound | chemical recovery by SPE of plasma / % |
| --- | --- |
| O=[N+]([O-])c1ccc(O)c([N+](=O)[O-])c1 | 50.9 |
| c1cc2ccc3ccc4ccc5cccc6c(c1)c2c3c4c56 | 1.37 |
| c1ccc2sc(NC3CCCCC3)nc2c1 | 0.297 |
| O=c1cc(O)c2ccccc2o1 [4-Hydroxycoumarin] | 78 |
| O=C(Nc1ccccc1-c1ccc(Cl)cc1)c1cccnc1Cl | 3.13 |
| C(=C/c1ccccc1)/c1ccccc1 [cis-Stilbene] | 0.481 |
| O=P(O)(Oc1ccccc1)Oc1ccccc1 [Diphenylphosphate] | 49.8 |
| Clc1cc(Cl)c(-c2cc(Cl)c(Cl)c(Cl)c2Cl)cc1Cl | 1.43 |

Each compound below has a reported value. Please supply its chemical recovery by SPE of plasma.
1. CC(=O)CC(c1ccccc1)c1c(O)c2ccccc2oc1=O (stereo not drawn)
2. O=c1ccc2ccccc2[nH]1 [2-Hydroxyquinoline]
3. Nc1cccc2ccccc12
4. COC(=O)Nc1nc2cc(C(=O)c3ccccc3)ccc2[nH]1
5. Oc1ccc(Cl)cc1Cl

Result block:
[62.8, 24, 6.22, 8.71, 50.9]

----------
Provide the recorded chemical recovery by SPE of plasma for the entries that follow.
- assay protocol: chemical recovery by SPE of plasma after PDMS sampling; higher = better extraction
- condition details: pooled human plasma; extraction method: HLB SPE of plasma after PES; equilibration time (d): 3
Numbers only, in %.

Examples with answers:
| molecule | chemical recovery by SPE of plasma (%) |
| --- | --- |
| CCCCCCCCn1sccc1=O | 1.03 |
| COc1ccc(C(=O)c2ccccc2)c(O)c1 | 1.88 |
| COc1ccc2c(c1)c(CC(=O)O)c(C)n2C(=O)c1ccc(Cl)cc1 | 41.1 |

Hi there! I need chemical recovery by SPE of plasma for each item below, if you can.
1. CCCCCOC(=O)Nc1nc(=O)n([C@@H]2O[C@H](C)[C@@H](O)[C@H]2O)cc1F
2. CSc1nnc(C(C)(C)C)c(=O)n1N
3. Clc1cccc(Cl)c1NC1=NCCN1

Result block:
1: 48.6; 2: 15.3; 3: 12.7

Please supply chemical recovery by SPE of plasma for each of the following items, keeping them in order.
1. O=C(O)C(F)(F)C(F)(F)C(F)(F)C(F)(F)C(F)(F)C(F)(F)C(F)(F)C(F)(F)C(F)(F)F
2. CC(C)N(C(=O)COc1nnc(C(F)(F)F)s1)c1ccc(F)cc1
3. Clc1ccc(Cl)c(-c2cc(Cl)c(Cl)cc2Cl)c1
4. Cc1cccc(Nc2ccccc2C(=O)O)c1C
5. c1ccc2c(c1)-c1cccc3c1c-2cc1ccccc13

Result block:
24.1
0.583
1.62
16.4
3.78

----------
- assay protocol: chemical recovery from spiked human plasma; higher = better extraction
- condition details: pooled human plasma; extraction method: solvent precipitation (ACN + hexane)
Task for the reader: assign each of the following compounds its reported chemical recovery.
Answer with the value and then the unit.

Observe how each entry below is paired with its result.
| compound | chemical recovery |
| --- | --- |
| O=C(O)c1cc(Oc2ccc(Cl)cc2Cl)ccc1[N+](=O)[O-] [Bifenox free acid] | 65.8% |
| C[C@H](CCC(=O)O)[C@H]1CC[C@H]2[C@@H]3CC[C@@H]4C[C@H](O)CC[C@]4(C)[C@H]3C[C@H](O)[C@]12C | 75.8% |

Take each entry in turn and give its chemical recovery.
1. Cc1cc(N)c2ccccc2n1
2. CCCCCCCCCC[N+](C)(C)Cc1ccccc1

Result block:
73.8%
66.1%

Hello, the source for this data is the supplement of paper PMC10702517, in case you need it.
